In this section, each of the compounds is paired with its reported AC50.
Target: UniProtKB P18825
Sequence (P18825 whole entry): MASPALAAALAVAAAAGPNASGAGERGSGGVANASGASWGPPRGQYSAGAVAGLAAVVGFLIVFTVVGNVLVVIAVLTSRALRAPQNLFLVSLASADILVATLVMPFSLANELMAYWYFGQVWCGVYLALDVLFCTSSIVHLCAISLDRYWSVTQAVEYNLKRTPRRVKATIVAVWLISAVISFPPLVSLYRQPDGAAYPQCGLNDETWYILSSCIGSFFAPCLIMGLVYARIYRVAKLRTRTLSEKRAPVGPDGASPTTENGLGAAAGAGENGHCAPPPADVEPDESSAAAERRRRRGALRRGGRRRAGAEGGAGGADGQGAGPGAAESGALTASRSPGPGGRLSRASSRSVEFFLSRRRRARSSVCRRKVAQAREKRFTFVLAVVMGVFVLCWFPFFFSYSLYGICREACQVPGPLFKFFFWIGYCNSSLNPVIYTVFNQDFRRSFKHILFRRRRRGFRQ
Assay type: functional

Some solved entries appear below for comparison.
O=C(O)c1cccnc1Nc1cccc(C(F)(F)F)c1 [NIFLUMIC ACID]: > 10 µM
COc1cc2[nH]c(C)c(CCN3CCN(c4ccccc4)CC3)c2cc1OC [OXYPERTINE]: 1.4 µM
O=S1(=O)CCN(CN2CCS(=O)(=O)NC2)CN1 [TAUROLIDINE]: > 30 µM
CCOC(=O)c1c(CSc2ccccc2)n(C)c2cc(Br)c(O)c(CN(C)C)c12 [UMIFENOVIR]: 12 µM
CC[C@H](C)C(=O)O[C@H]1C[C@@H](C)C=C2C=C[C@H](C)[C@H](CC[C@@H]3C[C@@H](O)CC(=O)O3)[C@H]21 [LOVASTATIN]: > 10 µM

Data request: GET /values?readout=AC50&system=UniProtKB P18825&item= COc1cc(C)c(/C=C/C(C)=C/C=C/C(C)=C/C(=O)O)c(C)c1C [ACITRETIN]
Data returned: > 10 µM

Data request: GET /values?readout=AC50&system=UniProtKB P18825&item= O=C1OC(OC(=O)c2cccnc2Nc2cccc(C(F)(F)F)c2)c2ccccc21 (centres undefined) [TALNIFLUMATE]
Data returned: > 30 µM

Data request: GET /values?readout=AC50&system=UniProtKB P18825&item= COC(=O)[C@H]1[C@H]2C[C@@H]3c4[nH]c5cc(OC)ccc5c4CCN3C[C@H]2C[C@@H](OC(=O)c2cc(OC)c(OC)c(OC)c2)[C@@H]1OC [RESERPINE]
Data returned: > 30 µM

Data request: GET /values?readout=AC50&system=UniProtKB P18825&item= CCOC(=O)c1ccc(C#Cc2ccc3c(c2)C(C)(C)CCS3)nc1 [TAZAROTENE]
Data returned: > 10 µM

Data request: GET /values?readout=AC50&system=UniProtKB P18825&item= CCCc1nc2c(C)cc(-c3nc4ccccc4n3C)cc2n1Cc1ccc(-c2ccccc2C(=O)O)cc1
Data returned: 12.5 µM

Data request: GET /values?readout=AC50&system=UniProtKB P18825&item= C[N+]12CCC(CC1)C(OC(=O)C(O)(c1ccccc1)c1ccccc1)C2 (centres undefined)
Data returned: > 30 µM

Data request: GET /values?readout=AC50&system=UniProtKB P18825&item= O=C(NCCO[N+](=O)[O-])c1cccnc1 [NICORANDIL]
Data returned: > 30 µM

Data request: GET /values?readout=AC50&system=UniProtKB P18825&item= CC(C)(O/N=C(\C(=O)N[C@@H]1C(=O)N2C(C(=O)[O-])=C(C[n+]3ccccc3)CS[C@H]12)c1csc(N)n1)C(=O)O [CEFTAZIDIME]
Data returned: > 300 µM

Data request: GET /values?readout=AC50&system=UniProtKB P18825&item= Cc1cccc(C)c1NC(=O)CC12CCCN1CCC2 [PILSICAINIDE]
Data returned: > 30 µM

Data request: GET /values?readout=AC50&system=UniProtKB P18825&item= CN[C@@H](C)[C@@H](O)c1ccccc1 [PSEUDOEPHEDRINE]
Data returned: 13 µM

Data request: GET /values?readout=AC50&system=UniProtKB P18825&item= COc1ccc([C@@H]2CC(=O)c3c(O)cc(O)cc3O2)cc1O [HESPERETIN]
Data returned: > 10 µM

Data request: GET /values?readout=AC50&system=UniProtKB P18825&item= COc1cc(C(=O)OCc2cccc(COC(=O)c3cc(OC)c(OC)c(OC)c3)n2)cc(OC)c1OC [PIROZADIL]
Data returned: > 30 µM

Data request: GET /values?readout=AC50&system=UniProtKB P18825&item= CO/N=C(\C(=O)N[C@@H]1C(=O)N2C(C(=O)O)=C(CSc3nc(=O)c(=O)[nH]n3C)CS[C@H]12)c1csc(N)n1 [CEFTRIAXONE]
Data returned: > 30 µM

Data request: GET /values?readout=AC50&system=UniProtKB P18825&item= CC=CC1=C(C(=O)O)N2C(=O)[C@@H](NC(=O)[C@H](N)c3ccc(O)cc3)[C@H]2SC1 [CEFPROZIL]
Data returned: > 30 µM
